- System: SUDHL5 cells
- Test Protocol: Induction of cytotoxicity in SUDHL5 cells (Assay 6)
- Assay type: cell-based
Endpoint Name: IC50 (nM)
API: value field is a number in nM; no unit string.

Data request, read-out IC50, for CCc1c2c(nn1C)C(CCC1CCOCC1)N(C)CCCCn1c(C(=O)O)c(CCCOc3cccc4cc(F)ccc34)c3ccc(Cl)c-2c31 (stereo not shown)
140

---

- Assayed Target: BCL-XL (Homo sapiens (Human))
- Sequence (Q07817 1-212): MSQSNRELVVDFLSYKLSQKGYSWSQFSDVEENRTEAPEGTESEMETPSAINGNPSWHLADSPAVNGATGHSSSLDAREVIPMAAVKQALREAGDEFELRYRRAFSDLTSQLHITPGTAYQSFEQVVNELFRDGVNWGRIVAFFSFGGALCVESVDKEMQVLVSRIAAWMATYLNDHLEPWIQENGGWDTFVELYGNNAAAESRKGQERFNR
- Test Protocol: Protein-protein interaction assay BCL-XL/Bad BH3 peptide (BCL-XL assay, TR-FRET)
- Stated Conditions: read-out: BCL-XL Assay IC50 (median)
Endpoint Name: pIC50
API: returns pIC50 as number; meaning -log10 of concentration in mol/L.

Cc1c2c(nn1C)C(C1CC1)OCCCCn1c(C(=O)O)c(CCCOc3cccc4ccccc34)c3ccc(Cl)c-2c31 (single isomer, unassigned; enantiomer 2) [Example 36]
4.86

Lookup: pIC50 / BCL-XL (Homo sapiens (Human)) / CCC1OCCCCn2c(C(=O)O)c(CCCOc3cccc4ccccc34)c3ccc(Cl)c(c32)-c2c1nn(C)c2C (single isomer, unassigned; enantiomer 1) [Example 29]
4.85

---

Reported values of IC50 for individual entries
- Assayed Target: MCL-1 (Homo sapiens (Human), UniProt Q07820, K194A/K197A/R201A)
- Sequence (Q07820 whole entry, looked up, stated change not applied): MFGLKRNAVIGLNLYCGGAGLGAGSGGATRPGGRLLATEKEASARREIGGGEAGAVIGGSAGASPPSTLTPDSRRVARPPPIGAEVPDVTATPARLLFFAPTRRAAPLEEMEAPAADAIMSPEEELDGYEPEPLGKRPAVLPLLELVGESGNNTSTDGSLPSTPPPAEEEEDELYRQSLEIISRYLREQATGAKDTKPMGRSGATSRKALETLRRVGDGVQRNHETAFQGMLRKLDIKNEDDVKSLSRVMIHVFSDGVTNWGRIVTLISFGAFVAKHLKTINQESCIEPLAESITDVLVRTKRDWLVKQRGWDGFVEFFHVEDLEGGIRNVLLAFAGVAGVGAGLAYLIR
- Test Protocol: Protein-protein interaction assay MCL-1/Noxa BH3 peptide (MCL-1 assay, TR-FRET)
- Assay type: binding
- Stated Conditions: MCL-1 Assay IC50 (median)
API: value field is a number in nM; no unit string.

CCc1c2c(nn1C)C(CCCN1CCOCC1)OCCCCn1c(C(=O)O)c(CCCOc3cccc4cc(F)ccc34)c3ccc(Cl)c-2c31 (single isomer, unassigned; enantiomer 2) [Example 67]
7.8
Cc1c2c(nn1C)C(CCO)OCCCCn1c(C(=O)O)c(CCCOc3cccc4ccccc34)c3ccc(Cl)c-2c31 (single isomer, unassigned; enantiomer 1) [Example 31]
0.26
CCc1c2c(nn1C)C(CC(C)(C)O)OCCCCn1c(C(=O)O)c(CCCOc3cccc4cc(F)ccc34)c3ccc(Cl)c-2c31 (racemic)
0.88

Data request, read-out IC50, for Cc1c2c(nn1C)C(CCN1CCOCC1)OCCCCn1c(C(=O)O)c(CCCOc3cccc4ccccc34)c3cccc-2c31 (single isomer, unassigned; stereoisomer 2) [Example 6]
51

Data request, read-out IC50, for CCc1c2c(nn1C)C(CCN1CC(F)(F)C1)OCCCCn1c(C(=O)O)c(CCCOc3cccc4cc(F)ccc34)c3ccc(Cl)c-2c31 (racemic)
1.7

Data request, read-out IC50, for Cc1c2c(nn1C)C(C)OCCCCn1c(C(=O)O)c(CCCOc3cccc4ccccc34)c3cccc-2c31 (single isomer, unassigned; stereoisomer 1) [Example 2]
1.2

Data request, read-out IC50, for Cc1c2c(nn1C)C(CCN1CCOCC1)OCCCCn1c(C(=O)O)c(CCCOc3cccc4ccccc34)c3ccc(Cl)c-2c31 (racemic) [Example 13]
1.6

Data request, read-out IC50, for Cc1c2c(nn1C)C(C1CC1)OCCCCn1c(C(=O)O)c(CCCOc3cccc4ccccc34)c3ccc(Cl)c-2c31 (racemic)
1.1

Data request, read-out IC50, for CCc1c2c(nn1C)C(CCC(C)(C)O)OCCCCn1c(C(=O)O)c(CCCOc3cccc4cc(F)ccc34)c3ccc(Cl)c-2c31 (racemic)
1

Data request, read-out IC50, for CCc1c2c(nn1C)C(CCC1CCOCC1)OCCCCn1c(C(=O)O)c(CCCOc3cccc4cc(F)ccc34)c3ccc(Cl)c-2c31 (single isomer, unassigned; enantiomer 1) [Example 61]
0.46
